Tested on: melanoma A375
PROTOCOL_TEXT: Tumor cell proliferation inhibitory activity test in vitro (MTT)
Format: cell-based, human
PROTOCOL_CONDITIONS: Homo sapiens, A-375, 72 hours, read-out: IC50 of compounds for tumor cells, Activity, A375
MEASURED_ENDPOINT: IC50

| MOLECULE | RECORDED_RESULT |
| --- | --- |
| COc1ccc(-c2ccc(-c3cc(=O)oc4ccccc34)o2)cc1 | > 5 µM |
| O=c1cc(-c2ccc(-c3ccccc3)o2)c2ccccc2o1 | > 5 µM |
| COc1ccc2c(-c3ccc(-c4ccccc4Cl)s3)cc(=O)oc2c1 | > 5 µM |
| CCOC(=O)c1cccc(-c2ccc(-c3cc(=O)oc4cc(OC)ccc34)o2)c1 | > 5 µM |
| COc1ccc2c(-c3ccc(-c4ccccc4OC)s3)cc(=O)oc2c1 | > 5 µM |
| COc1ccc(N(C)c2cc(=O)oc3ccccc23)cc1NC(=O)C1CCCC1 | 0.1 to 5 µM |
| CS(=O)(=O)c1ccc(-c2ccc(-c3cc(=O)oc4ccccc34)o2)cc1 | > 5 µM |
| O=c1cc(-c2ccc(-c3cccc(Cl)c3)o2)c2ccccc2o1 | > 5 µM |
| COc1ccc(N(C)c2cc(=O)oc3ccccc23)cc1 | 0.01 to 0.1 µM |
| COc1ccc(N(C)c2cc(=O)oc3ccccc23)cc1OC(=O)C(CCSC)NC(=O)OC(C)(C)C (centres unmarked) | 0.1 to 5 µM |
| CCOC(=O)c1cccc(-c2ccc(-c3cc(=O)oc4ccccc34)s2)c1 | > 5 µM |

###

Test system: hepatocellular carcinoma cell HEPG2
PROTOCOL_TEXT: Tumor cell proliferation inhibitory activity test in vitro (MTT)
Type: cell-based, human
PROTOCOL_CONDITIONS: 72 hours, read-out: IC50 of compounds for tumor cells, Activity, HEPG2
MEASURED_ENDPOINT: IC50

| SMILES_DATA | MEASURED_ENDPOINT | RECORDED_RESULT |
| --- | --- | --- |
| COc1ccc(N(C)c2cc(=O)oc3ccccc23)cc1OCCN1CCSCC1 | IC50 | 10 to 100 nM |
| COc1ccc(N(C)c2cc(=O)oc3ccccc23)cc1OCCN1CCOCC1 | IC50 | 100 to 5000 nM |
| COc1ccc(N(C)c2cc(=O)oc3ccccc23)cc1OCCN1CCCCC1 | IC50 | > 5000 nM |
| COc1ccc(N(C)c2cc(=O)oc3ccccc23)cc1OS(=O)(=O)Cc1ccc(C)cc1 | IC50 | 100 to 5000 nM |
| CCOc1cc(N(C)c2cc(=O)oc3ccccc23)ccc1OC | IC50 | > 5000 nM |
| COc1ccc(N(C)c2cc(=O)oc3ccccc23)cc1OC(=O)CCCl | IC50 | 100 to 5000 nM |

###

Test system: melanoma A375
PROTOCOL_TEXT: Tumor cell proliferation inhibitory activity test in vitro (MTT)
Assay type: cell-based, human
PROTOCOL_CONDITIONS: Homo sapiens, A-375, 72 hours, read-out: IC50 of compounds for tumor cells, Activity, A375
Method: […] Discard the supernatant after 72 hours, add 200 μL freshly prepared serum-free medium containing 0.2 mg/mL MTT into each well, continue to incubate at 37° C. for 1-4 hours, then stop incubation, carefully remove the culture supernatant in the wells and add 200 uL DMSO (dimethyl sulfoxide), oscillate with a miniature ultrasonic oscillator for 15-20 minutes to make the crystal fully dissolved and mixed. Determine OD values using a microplate reader at 570 nm with a reference wavelength of 450 nm. […]
pIC50: −log10 of the molar value.
pIC50 values by entry

| SMILES_DATA | pIC50 |
| --- | --- |
| COc1ccc(N(C)c2cc(=O)oc3ccccc23)cc1OC(=O)C1CCCC1 | 8.00 to 11.00 |
| O=c1cc(-c2ccc(-c3ccccc3Cl)s2)c2ccccc2o1 | < 5.30 |
| COc1ccc2c(-c3ccc(-c4ccc5c(c4)OCO5)o3)cc(=O)oc2c1 | < 5.30 |
| COc1ccc2c(-c3ccc(-c4ccccc4OC)o3)cc(=O)oc2c1 | < 5.30 |
| CCOC(=O)COc1cc(N(C)c2cc(=O)oc3ccccc23)ccc1OC | 7.00 to 8.00 |
| COc1ccc2c(-c3ccc(-c4ccc5c(c4)OCO5)s3)cc(=O)oc2c1 | < 5.30 |
| COc1ccc(N(C)c2cc(=O)oc3ccccc23)cc1NC(=O)CCC(=O)O | 5.30 to 7.00 |
| COc1ccc2c(-c3ccc(-c4ccc(Cl)cc4)o3)cc(=O)oc2c1 | < 5.30 |
| COc1ccc2c(c1)CN(c1cc(=O)oc3cc(OC)ccc13)CCC2 | 5.30 to 7.00 |
| COc1ccc2c(c1)CN(c1cc(=O)oc3ccccc13)CCC2 | 5.30 to 7.00 |
